Origin of the recorded values: patent US20160075790A1

target_under_test: T1, human CD40L, membrane-bound on cells (human, UniProt P29965 1-261)
T1 sequence: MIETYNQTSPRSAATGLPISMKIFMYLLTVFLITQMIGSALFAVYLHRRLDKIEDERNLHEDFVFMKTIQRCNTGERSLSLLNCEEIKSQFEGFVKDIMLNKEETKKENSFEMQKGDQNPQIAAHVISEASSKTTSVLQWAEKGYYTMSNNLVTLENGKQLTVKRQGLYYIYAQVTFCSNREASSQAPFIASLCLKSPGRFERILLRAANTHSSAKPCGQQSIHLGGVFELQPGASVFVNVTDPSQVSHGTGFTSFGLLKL
method_summary: cell-based or functional assay
readout: T-B cell MLR EC50 (nM)
Reply with just the number (in nM).

Which T-B cell MLR EC50 is reported for this binder? 2h116-1320-Fc (Fc fusion, not shown: a dimerising Fc or GST) DIQMTQSPSSLSAYVGDRVTITCRASQPIGPDLLWYQQKPGKAPKLLIYQTSILRSGVPSRFSGSGSETDFTLTISNLQPEDFAKYYCQQYWAFPVTFGQGTKVVIKR
244

How about this binder: 2h572-6 Fc (Fc fusion, not shown: a dimerising Fc or GST) EVQLLESGGGLVQPGGSLRLSCAASGFTFNWQLMGWVRQAPGKGLEWVSGIEGPGDVTYYADSVKGRFTISRDNSKNTLYLQMNSLRAEDTAVYYCVKVGKESNSDYRGQGTLVTVSS
1.9

How about this binder: 2h572-619-Ctshort Fc (Fc fusion, not shown: a dimerising Fc or GST) EVQLLESGGGLVQPGGSLRLSCAASGFTFNWQLMGWVRQAPGKGLEWVSGIEGPGDVTYYADSVKGRFTISRDNSKNTLYLQMNSLRAEDTAVYYCVKVGKDSRSDYRGQGTLVTVSS
0.4

How about this binder: 2h572-635 Fc (Fc fusion, not shown: a dimerising Fc or GST) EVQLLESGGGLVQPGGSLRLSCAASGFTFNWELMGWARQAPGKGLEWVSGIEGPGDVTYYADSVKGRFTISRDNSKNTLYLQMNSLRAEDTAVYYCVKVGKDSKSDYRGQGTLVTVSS
0.16
